Entries and their iNOS suppr. qPCR
Test system: iNOS
Assay: Suppression of iNOS mRNA induction, qPCR
Assay type: cell-based, mouse
Settings: RAW264.7; 2 h pre-treatment, 10 ng/ml IFNγ for 2 hours
Protocol: FIG. 35. Suppression of iNOS mRNA induction. RAW264.7 mouse macrophages were pre-treated for 2 hours with compounds at the indicated concentrations and subsequently stimulated with 10 ng/ml IFNγ for an additional 2 hours. mRNA levels of iNOS were quantified by qPCR and are shown relative to the vehicle-treated IFNγ-stimulated sample which was normalized to a value of 1. Values are averages of duplicate PCR reactions, each with triplicate wells. FIG. 36. Suppression of iNOS mRNA induction. […]
reported-endpoint: iNOS suppr. qPCR

INSERT INTO results (structure_smiles_string, result) VALUES
  ('COC(=O)N[C@]12CCC(C)(C)C[C@H]1[C@H]1C(=O)C=C3[C@@]4(C)C=C(C#N)C(=O)C(C)(C)[C@@H]4CC[C@@]3(C)[C@]1(C)CC2', '~50%'),
  ('CCS(=O)(=O)N[C@]12CCC(C)(C)C[C@H]1[C@H]1C(=O)C=C3[C@@]4(C)C=C(C#N)C(=O)C(C)(C)[C@@H]4CC[C@@]3(C)[C@]1(C)CC2', '~65%'),
  ('CC1(C)CC[C@]2(NS(C)(=O)=O)CC[C@]3(C)[C@H](C(=O)C=C4[C@@]5(C)C=C(C#N)C(=O)C(C)(C)[C@@H]5CC[C@]43C)[C@@H]2C1', '~65%'),
  ('CC1(C)CC[C@]2(NC(=O)N3CCC(O)CC3)CC[C@]3(C)[C@H](C(=O)C=C4[C@@]5(C)C=C(C#N)C(=O)C(C)(C)[C@@H]5CC[C@]43C)[C@@H]2C1', '0%'),
  ('CC1(C)CC[C@]2(NS(=O)(=O)c3ccccc3)CC[C@]3(C)[C@H](C(=O)C=C4[C@@]5(C)C=C(C#N)C(=O)C(C)(C)[C@@H]5CC[C@]43C)[C@@H]2C1', '~60%'),
  ('CC1(C)CC[C@]2(NS(=O)(=O)C3CC3)CC[C@]3(C)[C@H](C(=O)C=C4[C@@]5(C)C=C(C#N)C(=O)C(C)(C)[C@@H]5CC[C@]43C)[C@@H]2C1', '50%'),
  ('C=CC(=O)N[C@]12CCC(C)(C)C[C@H]1[C@H]1C(=O)C=C3[C@@]4(C)C=C(C#N)C(=O)C(C)(C)[C@@H]4CC[C@@]3(C)[C@]1(C)CC2', '50%'),
  ('CC1(C)CC[C@]2(N)CC[C@]3(C)[C@H](C(=O)C=C4[C@@]5(C)C=C(C#N)C(=O)C(C)(C)[C@@H]5CC[C@]43C)[C@@H]2C1', '~50%');

Cited source: patent US9670147B2
